Tested on: Staphylococcus aureus
test_details: Bactericidal activity against Staphylococcus aureus ATCC 29213 incubated for 24 hrs followed by replating on agar plate and measured after overnight incubation
Format: functional
settings: ATCC 29213, 24 h, read-out: MBC>99.9
Entries and their measured MBC follow.
Number in µM, nothing else.

[[record]]
substance = "H-AARIILRWRFR-NH2"
value_reported = 2


Note to self: MBC recorded for H-AARIILRRRFR-NH2 was 32

Note to self: MBC recorded for H-AARIILRGRFR-NH2 was 8

====

Tested on: Escherichia coli
test_details: Bactericidal activity against Escherichia coli 078 incubated for 24 hrs followed by replating on agar plate and measured after overnight incubation
Format: functional
settings: Escherichia coli, 078, 24 h; read-out: MBC>99.9
Lab note: compare MBC with 8 µM, writing yes (1) if less and no (0) if equal or more.

Use these answered entries as a reference point.
[[record]]
substance = "H-AARIILRYRFR-NH2"
assigned_category = "yes (1)"

[[record]]
substance = "H-AARIILRPRFR-NH2"
assigned_category = "no (0)"

[[record]]
substance = "H-AARIILRIRFR-NH2"
assigned_category = "yes (1)"

[[record]]
substance = "H-AARIILRARFR-NH2"
assigned_category = "yes (1)"


Criterion: MBC strictly below 8 µM. Is it met by H-AARIILRWFRR-NH2 ? yes (1)

Criterion: MBC strictly below 8 µM. Is it met by H-AARRILRWIFR-NH2 ? yes (1)

Criterion: MBC strictly below 8 µM. Is it met by H-AARIILRNRFR-NH2 ? no (0)

Criterion: MBC strictly below 8 µM. Is it met by H-AARIILRRRFR-NH2 ? no (0)

Criterion: MBC strictly below 8 µM. Is it met by H-AARIILRWRFR-NH2 ? yes (1)
